- experimentalTarget: CYP1A2 (Homo sapiens)
- Construct: A system of 100 μL human liver microsomes; from tissue; host or cells: human liver microsomes
- Sequence (P05177 whole entry): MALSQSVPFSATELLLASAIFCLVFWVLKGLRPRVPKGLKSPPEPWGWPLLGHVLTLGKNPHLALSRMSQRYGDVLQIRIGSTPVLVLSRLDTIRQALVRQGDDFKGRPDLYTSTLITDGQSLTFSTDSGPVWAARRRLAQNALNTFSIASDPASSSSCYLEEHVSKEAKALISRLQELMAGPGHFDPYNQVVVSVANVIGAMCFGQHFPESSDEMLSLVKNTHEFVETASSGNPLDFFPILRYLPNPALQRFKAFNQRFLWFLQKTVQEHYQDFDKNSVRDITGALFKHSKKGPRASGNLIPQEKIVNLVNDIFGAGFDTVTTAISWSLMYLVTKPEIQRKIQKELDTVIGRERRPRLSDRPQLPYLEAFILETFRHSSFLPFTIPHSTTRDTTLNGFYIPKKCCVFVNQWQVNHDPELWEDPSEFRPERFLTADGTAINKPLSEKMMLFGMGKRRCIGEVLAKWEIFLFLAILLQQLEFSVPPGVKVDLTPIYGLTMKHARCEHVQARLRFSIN
- measurementProtocol: Direct inhibition (DI) of CYP1A2 in human liver microsomes
- Assay type: in vitro ADME
- measurementConditions: probe Phenacetin, human liver microsomes 0.2 mg/mL, 10 μM compound, read-out: Direct inhibition (DI) 1A2 (Phenacetin)

[
  {
    "molecule": "Cc1cc(Nc2ncnc3ccc(NC(=O)/C=C/[C@H]4CCCN4C)cc23)ccc1Oc1ccn2ncnc2c1 [Final product of Embodiment 20]",
    "resultUnits": "%",
    "operator": "=",
    "inhibition at 20 min, 10 µM": 6
  },
  {
    "molecule": "CCOc1cc2ncnc(Nc3ccc(Oc4cc5nncn5cn4)c(C)c3)c2cc1NC(=O)/C=C/[C@H]1CCCN1C [Final product of Embodiment 18]",
    "resultUnits": "%",
    "operator": "=",
    "inhibition at 20 min, 10 µM": 5
  },
  {
    "molecule": "CN1CCC[C@@H]1/C=C/C(=O)Nc1ccc2ncnc(Nc3ccc(Oc4ccn5ncnc5c4)c(Cl)c3)c2c1 [Final product of Embodiment 26]",
    "resultUnits": "%",
    "operator": "=",
    "inhibition at 20 min, 10 µM": 2
  },
  {
    "molecule": "C=CC(=O)N1CCC(c2ccc3ncnc(Nc4ccc(Oc5cc6nncn6cn5)c(C)c4)c3c2)CC1 [Final product of Embodiment 4]",
    "resultUnits": "%",
    "operator": "<",
    "inhibition at 20 min, 10 µM": 0
  },
  {
    "molecule": "Cc1cc(Nc2ncnc3ccc(NC(=O)/C(F)=C\\[C@H]4CCCN4C)cc23)ccc1Oc1ccn2ncnc2c1 [Final product of Embodiment 40]",
    "resultUnits": "%",
    "operator": "<",
    "inhibition at 20 min, 10 µM": 0
  },
  {
    "molecule": "Cc1cc(Nc2ncnc3ccc(NC(=O)/C=C/[C@H]4CCCN4)cc23)ccc1Oc1ccn2ncnc2c1 [Final product of Embodiment 19]",
    "resultUnits": "%",
    "operator": "=",
    "inhibition at 20 min, 10 µM": 7
  },
  {
    "molecule": "Cc1cc(Nc2ncnc3ccc(NC(=O)/C=C/[C@H]4CCCN4C)cc23)ccc1Oc1ccc2nccn2n1 [Final product of Embodiment 10]",
    "resultUnits": "%",
    "operator": "=",
    "inhibition at 20 min, 10 µM": 14
  },
  {
    "molecule": "Cc1cc(Nc2ncnc3ccc(NC(=O)/C=C/[C@H]4CCCN4C)cc23)ccc1Oc1ccn2ncnc2n1 [Final product of Embodiment 12]",
    "resultUnits": "%",
    "operator": "=",
    "inhibition at 20 min, 10 µM": 2
  },
  {
    "molecule": "C=CC(=O)N[C@H]1CCCN(c2ccc3ncnc(Nc4ccc(Oc5cc6nncn6cn5)c(C)c4)c3c2)C1 [Final product of Embodiment 5]",
    "resultUnits": "%",
    "operator": "=",
    "inhibition at 20 min, 10 µM": 9
  },
  {
    "molecule": "CCOc1cc2ncc(C#N)c(Nc3ccc(Oc4cc5nncn5cn4)c(C)c3)c2cc1NC(=O)/C=C/[C@H]1CCCN1 [Final product of Embodiment 32]",
    "resultUnits": "%",
    "operator": "<",
    "inhibition at 20 min, 10 µM": 0
  }
]
